FYI, the data here is from the supplement of paper PMC10307832.

- System: PC-3 [JPC-3]
- Protocol: relative viability (nuclei count vs DMSO), 5 days (fraction); higher = more cells survive
- Assay setup: first compound 0.2 µM

Compound: CCNC(=O)c1noc(-c2cc(C(C)C)c(O)cc2O)c1-c1ccc(CN2CCOCC2)cc1 [Luminespib] + Nc1ncn([C@H]2C[C@H](O)[C@@H](CO)O2)c(=O)n1 [Decitabine] (partner 2 µM)
Target entity: PC-3 [JPC-3]
relative viability: 0.506
//
Compound: CN1CCN(CCOc2cc(OC3CCOCC3)c3c(Nc4c(Cl)ccc5c4OCO5)ncnc3c2)CC1 [Saracatinib] + O=C(CCCCCCC(=O)Nc1ccccc1)NO [Vorinostat] (partner 1 µM)
Target entity: PC-3 [JPC-3]
relative viability: 0.47
//
Compound: CN1CCN(CCOc2cc(OC3CCOCC3)c3c(Nc4c(Cl)ccc5c4OCO5)ncnc3c2)CC1 [Saracatinib] + Nc1nc2[nH]cc(CCc3ccc(C(=O)N[C@@H](CCC(=O)O)C(=O)O)cc3)c2c(=O)[nH]1 [Pemetrexed] (partner 0.2 µM)
Target entity: PC-3 [JPC-3]
relative viability: 0.709
//
Compound: Cc1csc(=NC2CCCCC2)n1/N=C/c1ccc(O)c(O)c1O [MIM1] + CC(C)C[C@H](NC(=O)[C@H](Cc1ccccc1)NC(=O)c1cnccn1)B(O)O [Bortezomib] (partner 0.002 µM)
Target entity: PC-3 [JPC-3]
relative viability: 0.862
//
Compound: Cc1csc(=NC2CCCCC2)n1/N=C/c1ccc(O)c(O)c1O [MIM1] + C[C@]1(O)C[C@@H](c2nc(-c3ccc4ccc(-c5ccccc5)nc4c3)c3c(N)nccn32)C1 [Linsitinib] (partner 1 µM)
Target entity: PC-3 [JPC-3]
relative viability: 0.946

* * *

- System: NCI-H2170
- Protocol: relative viability (nuclei count vs DMSO), 5 days (fraction); higher = more cells survive
- Assay setup: first compound 0.02 µM

Molecule: CCNC(=O)c1noc(-c2cc(C(C)C)c(O)cc2O)c1-c1ccc(CN2CCOCC2)cc1 [Luminespib] + COc1cccc2cc(-c3nc([C@H]4CC[C@H](C(=O)O)CC4)n4ncnc(N)c34)[nH]c12 [OSI-027] (partner 0.5 µM)
relative viability: 0.488
--
Molecule: CN1CCN(CCOc2cc(OC3CCOCC3)c3c(Nc4c(Cl)ccc5c4OCO5)ncnc3c2)CC1 [Saracatinib] + O=C(c1cc(Cc2n[nH]c(=O)c3ccccc23)ccc1F)N1CCN(C(=O)C2CC2)CC1 [Olaparib] (partner 8 µM)
relative viability: 0.597
--
Molecule: CCNC(=O)c1noc(-c2cc(C(C)C)c(O)cc2O)c1-c1ccc(CN2CCOCC2)cc1 [Luminespib] + Cc1nc(Nc2ncc(C(=O)Nc3c(C)cccc3Cl)s2)cc(N2CCN(CCO)CC2)n1 [Dasatinib] (partner 0.075 µM)
relative viability: 0.308
--
Molecule: CCNC(=O)c1noc(-c2cc(C(C)C)c(O)cc2O)c1-c1ccc(CN2CCOCC2)cc1 [Luminespib] + Cc1nc(NC(=O)N2CCC[C@H]2C(N)=O)sc1-c1ccnc(C(C)(C)C(F)(F)F)c1 [Alpelisib] (partner 2 µM)
relative viability: 0.526

* * *

The following compounds are listed with their measured relative viability values.
- Test system: NCI-H1355
- Protocol: relative viability (nuclei count vs DMSO), 5 days (fraction); higher = more cells survive
- Assay setup: first compound 0.002 µM

Compound: CCNC(=O)c1noc(-c2cc(C(C)C)c(O)cc2O)c1-c1ccc(CN2CCOCC2)cc1 [Luminespib] + Cc1cc(Nc2cc(N3CCN(C)CC3)nc(Sc3ccc(NC(=O)C4CC4)cc3)n2)n[nH]1 [Tozasertib] (partner 0.1 µM)
relative viability: 0.518

Compound: CCNC(=O)c1noc(-c2cc(C(C)C)c(O)cc2O)c1-c1ccc(CN2CCOCC2)cc1 [Luminespib] + Cc1nc(NC(=O)N2CCC[C@H]2C(N)=O)sc1-c1ccnc(C(C)(C)C(F)(F)F)c1 [Alpelisib] (partner 2 µM)
relative viability: 0.915

Compound: CCNC(=O)c1noc(-c2cc(C(C)C)c(O)cc2O)c1-c1ccc(CN2CCOCC2)cc1 [Luminespib] + C[C@]1(O)C[C@@H](c2nc(-c3ccc4ccc(-c5ccccc5)nc4c3)c3c(N)nccn32)C1 [Linsitinib] (partner 1 µM)
relative viability: 0.903

Compound: CCNC(=O)c1noc(-c2cc(C(C)C)c(O)cc2O)c1-c1ccc(CN2CCOCC2)cc1 [Luminespib] + CC(=O)c1c(C)c2cnc(Nc3ccc(N4CCNCC4)cn3)nc2n(C2CCCC2)c1=O [Palbociclib] (partner 0.5 µM)
relative viability: 0.415

Compound: CCNC(=O)c1noc(-c2cc(C(C)C)c(O)cc2O)c1-c1ccc(CN2CCOCC2)cc1 [Luminespib] + CS(=O)(=O)N1CCN(Cc2cc3nc(-c4cccc5[nH]ncc45)nc(N4CCOCC4)c3s2)CC1 [Pictilisib] (partner 1 µM)
relative viability: 0.411
